Tested on: HOP-92
assay_details: NCI tumour cell line growth inhibition, 48 h
Active and inactive are the calls of the source. Rule as the data show it: active = GI50 up to about 1.1 µM and inactive = higher.
parameter_measured: GI50

Record Fc1cc(-c2cc(-c3ccccc3)n[nH]2)c(Cl)cc1Cl , field GI50: > 100 µM (inactive)

According to the records, this compound C[C@@H](NC(=O)OC1C=CC2(CC1)C(=O)N(C)c1ccccc12)c1cccc2ccccc12 (stereo partly specified) displays GI50 of > 25 µM (inactive)

GI50 recorded for this compound, Cc1cc(=O)[nH]c2cc(NC(=O)C(CCCNC(=N)N)NC(=O)OCc3ccccc3)ccc12 (stereo unspecified) , is 78.5 µM (inactive)

Reported GI50 of Cc1cccc(C)c1N1C(=O)C2c3[nH]c4ccccc4c3C3CCC(C(C)(C)C)CC3C2C1=O (stereo unspecified) : 6.32 µM (inactive)

Item: CCCNc1[nH]c(C(=O)c2ccccc2)c(N)c1C(=S)Nc1ccccc1 | GI50: > 100 µM (inactive)

// sample Cc1ccccc1N(CCC#N)C1=NN(C(=O)CC(=O)Nc2ccc(Cl)cc2)C(c2ccccc2)C1 (stereo unspecified) , its GI50 was > 100 µM (inactive)

For this compound ( CC(=O)NCCC1CN(C(=O)/C=C\I)c2ccccc21 (stereo unspecified) ), measured GI50 is 21.7 µM (inactive)

What the record says about CCc1cc2c(c3[nH]ccc13)[C@@H](C)C[C@H]2C : GI50 is 16.2 µM (inactive)

Entry CCCC(CCC(N)=O)(CCC(N)=O)[N+](=O)[O-] — recorded GI50 = > 100 µM (inactive)

Measured GI50, COc1cc(Br)c(CC2C3=C(CCN2C(=O)C2CCC2)CC(=O)CC3)cc1O (stereo unspecified) : 20.4 µM (inactive)

Lab book: GI50 of C=C(C(=O)C(=O)Oc1ccc(Cl)cc1)C(=O)c1ccc(C)cc1 noted as > 100 µM (inactive)

Noted for O=C(O)c1cc2sc(C(=O)O)cc2s1 : its GI50 reads > 100 µM (inactive)

What the record says about Cc1nc2c(nc1C)-c1[nH]c3c(c1C(=O)C2=O)CCCC3=O : GI50 is 1.69 µM (inactive)

According to the records, this compound OCC1OC(n2cnc3c2N=CNC[C@H]3O)C(Cl)C1O (stereo partly specified) displays GI50 of > 100 µM (inactive)

GET /value?item= Nc1nc2ccc(Sc3ccc4nc(N)[nH]c(=O)c4c3)cc2c(=O)[nH]1 &field=GI50 returns > 100 µM (inactive)

Data point: CC(=O)C1(O)CCC2(O)C3(O)CC=C4CC(O)CCC4(C)C3CC(OC(=O)c3ccc(O)cc3)C12C.COC1CC(OC2C(C)OC(OC3C(C)OC(OC4CCC5(C)C(=CCC6(O)C5CC(OC(=O)c5ccc(O)cc5)C5(C)C(O)(C(C)=O)CCC65O)C4)CC3OC)CC2OC)OC(C)C1O (stereo unspecified) ; GI50 = 21.1 µM (inactive)

// GI50 lookup, compound = CCOP(=O)(OCC)/C(C#N)=C/c1cnc(C)[nH]1 , result: > 100 µM (inactive)

Lab book: GI50 of COc1ccccc1/N=C1\SCCN1C(=S)Nc1ccc(S(=O)(=O)/N=C/N(C)C)cc1 noted as 27.9 µM (inactive)

Consider CCCCN(CCCC)CCCn1cnc2ncccc2c1=O . Its measured GI50 is > 100 µM (inactive)

What the record says about CN(C)CCNC(=O)c1cccc2ccc(-c3ccc(-c4ccccc4)cc3)nc12 : GI50 is 3.02 µM (inactive)

Lab note: COc1ccc(Nc2nc3cc(C(F)(F)F)ccc3nc2C(=O)O)cc1OC gave GI50 of 19 µM (inactive)

Recorded GI50 (compound COc1ccc2c(c1)CC1Cc3ccccc3CCN1C2 (stereo unspecified) ): 27.7 µM (inactive)

Looking up O=c1[nH]c(=S)c2cc3c(=S)[nH]c(=O)n(CCO)c3nc2n1CCO , I see its GI50 listed as > 100 µM (inactive)

GI50 reading for CSc1nc2[nH]c(=O)c(C)nc2c(=O)[nH]1 : > 100 µM (inactive)

Entry O=C1OC2(OC2c2ccc(Cl)cc2)c2ccccc21 (stereo unspecified) , GI50 reported as > 100 µM (inactive)

Measured GI50, CC(=O)NC(CCCCNCc1ccccc1)C(=O)NCc1ccccc1 (stereo unspecified) : > 100 µM (inactive)

GI50 reading for CC(=O)/C=C/c1ccc(C2CC(C)=Nc3c(ccc4c3C(=O)c3ccccc3C4=O)N2)cc1 (stereo unspecified) : 28.2 µM (inactive)

Record O=C1/C(=C/c2cccs2)NC(=S)N1CN1CCCCC1 . Reported GI50: 77.1 µM (inactive)

For COc1ccc2c(C(=O)O)cc3ccccc3c2c1OC the compound record lists GI50 as 21.9 µM (inactive)

Recorded result, C/C(CCN(C)C)=N/O , GI50: 9.44 µM (inactive)

Recorded result, CN(C)c1[se]nc2c1c(=O)n(C)c(=O)n2C , GI50: > 100 µM (inactive)

Consider COc1cccc(C2CC(=O)c3cccn32)c1 (stereo unspecified) . Its measured GI50 is > 100 µM (inactive)

The value of GI50 measured for the compound Nc1ncnc2c1ncn2[C@@H]1O[C@H](COP(=O)(O)OP(=O)(O)OC[C@H]2O[C@@H](OCCCO)[C@H](O)[C@@H]2O)[C@@H](O)[C@H]1O turned out to be > 100 µM (inactive)

Field GI50 (entry CCOC(=O)NC(Nc1ccc(F)cc1)(C(=O)OCC)C(F)(F)F (stereo unspecified) ) reads > 100 µM (inactive)

For O=C(CCN(CCO)CCO)Nc1ccc2c(c1)C(=O)c1ccc(NC(=O)CCN(CCO)CCO)cc1C2=O the compound record lists GI50 as 26.7 µM (inactive)

Lab note: Cc1ccc(S(N)(C(=O)Nc2cccc3ccccc23)[N+](=O)[O-])cc1 (stereo unspecified) gave GI50 of > 100 µM (inactive)
